Source: patent US6916845B2

Tested on: cGMP formation in clitoris CC of female rabbits
experiment: cGMP formation in CC of clitoris stimulated with SNP, radioimmunoassay
Type: cell-based, rabbit
details: Oryctolagus cuniculus, read-out: EC50 (cGMP formation, CC of clitoris)
measure-name: pEC50
Please keep in mind that pEC50 is minus log10 of the molar concentration; only the number is needed.

Exercise: Quick one: pEC50 of COc1ccc(-c2oc3c(CC=C(C)C)c(O[C@@H]4O[C@H](CO)[C@@H](O)[C@H](O)[C@H]4O)cc(O)c3c(=O)c2O[C@@H]2O[C@@H](C)[C@H](O)[C@@H](O)[C@H]2O)cc1 ?
Key: 5.50

###

tested-system: PDE5 isolated from human platelets (Homo sapiens)
Construct: PDE5 and PDE4 were isolated from human platelets and liver tissue using a Pharmacia FPLC system and Mono Q column
experiment: Inhibition of cGMP specific PDE5, two-step radioisotope procedure
measure-name: IC50 (nM)
Express your answer in nM, writing the number without its unit.

Exercise: If you can, please state the reported IC50 value of COc1ccc(-c2oc3c(CC=C(C)C)c(O[C@@H]4O[C@H](CO)[C@@H](O)[C@H](O)[C@H]4O)cc(O)c3c(=O)c2O[C@@H]2O[C@@H](C)[C@H](O)[C@@H](O)[C@H]2O)cc1 .
Key: 432
